Assay: in vitro
Conditions: rat, serum
Attribute Measured: fraction unbound

Task: Returns the measured fraction unbound for the input molecule. Input: "O=C1CCc2ccc(OCCCCN3CCN(c4cccc(Cl)c4Cl)CC3)cc2N1"
Output: 0.003

* * *

Assay: in vitro
Details: human, serum, Human (fu value)
Attribute Measured: fraction unbound
Could you respond with only the numeric value?

Task: Can you share its fraction unbound? I mean this molecule: "O=C1CCc2ccc(OCCCCN3CCN(c4cccc(Cl)c4Cl)CC3)cc2N1"
Output: 0.002

* * *

Assay: in vitro
Conditions: human, serum, Human serum (serum concentration: 1/1) (fu value)
Attribute Measured: fraction unbound
When you answer, write just the number.

Task: Sample "O=C1CCc2ccc(OCCCCN3CCN(c4cccc(Cl)c4Cl)CC3)cc2N1" — what was its fraction unbound?
Output: 0.0021
